experiment: soluble on expression in E. coli; label from the status in PepcDB or PDB records
METRIC NAME: soluble on expression in E. coli

MNIPMYIVDAFTDRPFAGNPAAVCLLPQPVGDEWMQRVAAEMNLSETAFLVPHEGGYRLRWFTPKAEVDLCGHATLASAHVLWERGERRADEAIAFFTNSGVLTAINNDGWIRLDFPNETPVRVESPPAALVGALPAEPLFIGRNRFDYLVEIGSEQEVRRLTPDFRLLQEVDARGIIVTSRSAAEEMDFVSRAFFPALGVPEDPVTGSAHCCLGPYWADKLGKTTLVGYQASARGGIVRVMVSGERVQLEGKAVTVLKGDLAAEAAFGLQPI	not soluble
MSLGAQADTILNVATAGDQNMVDYVKTWLGPKFEAAHPGVKVRVIGTGPGDAGSNKISEKLTAQQESGAQQWDIDVAVVHQKAGGEQVAKGLLQKYRQDIQTGGMVSSPSATQALGVNVDGYVMPMFLSQTAIAWNSDLVTTPPASYDELVAWTQKHPQAFGYNGIKNGMSGVSFVVGWIYAYGTDAQRLSAGPYDKSVEKGWQQAYEKLKAFNKNVTFTPGNAGTLDMLSRGEIAMGPVWVDMFYSWKDQGKLPPSIKLALLAPGMPGQPMYYVIPAKAANPQLARDFIALATSPEVQAQGIVKQFNWYPGIDAGQVKPKLDAATWQKLFAEISPEALAKYGKSFPIAPYFDDIKEGYESQVANEGHHHHHH	soluble
MQKVEGIIFDMDGVLFDSERISLEFWMETFEKYGYTMTKEIYTSVMGRNRKGIIEGLTDIYDSSVPIIDLYDEKTKNMIEFMERKGAPIKLGVNELISFLKENGYKMAVATSTKRERAVKRLAKANLKDYFDAIVCGDDVVNSKPNPEIFLKAAKKINVNPKNCIVIEDSPMGVEAAYNGGIRCINVPDLKEPDEQIKSQSHKILENLLEVREYLKSLNSKECHNL	not soluble
MAHHHHHHMDRRHLELEDAQERASAEEVATQASAEHKHYMNDSDEDSDEENGIDDEQSASLVAMLRTQEEIDSAIAGFTKGTRMLLASSGNGYVSYLDGSVHFTIAKVESHNASNREKVMQALAGTNVAMPTAEEYSLEEVRQAMHDRDTARKKLDALRALQDPTYTARIRSAEKDTYGTPVQQLMEEDGDMSALVANCEDAKRFAESVRKAYNSRAAASAHALACALCTPPFTAEQESTSEAQAPAGKMANAEDGVSQPTGANSPSSSTSAQ	soluble

Give its soluble on expression in E. coli value. Item: MSLIGITQRLICNDSYHEKRECLALDWGKLFNKDLFKNFTPLPLSYEIDFSYYKHLIKAVILSGGNDLSFYSPNVLSKKRDLYEKQVIEICLEEKIPLLGICRGAQMIAHYFNSHISPCENHIGKHEVFFSKEKFISNSFHNFAIEKLGEDLVELCLAKDNTIEAFKHKYENIFGIMWHIERENGLNNIQILKEWFSLIKEGHHHHHH
not soluble

Give its soluble on expression in E. coli value. Item: MVHDSALPFDALPMPPQGREGFEECPYLDSQWVADTNGQRMTGQGVDTRFDTPACVFWSYPEAPQATVMVRHMPSEEEAIRVVDWAAPIDTTEPAEEPDGWSGGRAGHEEGAVYAVQKGPVAVVVWSNQQQSLKAELMAKEAIARLGL
soluble

Give its soluble on expression in E. coli value. Item: MPQSESNIALLIDADNAPASKIEAIVSEIAKYGVANIRKAYGNWKSPNLKAWEECLHEYAIRPVQQFDYTKGKNATDAAMIIDAMDLLYTQRLDAFAIVSSDCDFTPLVMRILTNGLKVYGFGEKKTPLPFVYACSTFLYLESIDQIENSEGATQSSTSVKKTGKELKQDAKLISLLRSAISSTIDDDGWSSLAEIGGHIKNQASFDSRNYGYAKLSSLFEAIDLFEIERKNRAIYVRNRQKKSATSKSLEHHHHHH
soluble

Give its soluble on expression in E. coli value. Item: MGSDKIHHHHHHMSERPTLHVVSLSGGKDSTATLCVALEQHGSENVRAVMADTGNEDEQNLEYALDYLPRALGIPVDVVRADFTDEFATKRANLARIAAGEPESAVYGKREFMYRWTPEAAARALEVLHPTGIPFLDLCLVRGGFPSRKRQFCTQYLKTEQLVGYALREIDRGYAVWSWQGVRIDESDSRRERLQGTGACVKAFEVVGGGLFNYRPILRWSAADVFEAHAAAGIRPNPLYRQGMSRVGCMPCINAGKLELREIARRFPEHVERIAEWERLVSEVCRPGSPVSFFHQGTTGHTGQASTIWKVVDWSKTSRGGRQYDLLADAEPATACSSAYGLCE
not soluble

Give its soluble on expression in E. coli value. Item: MAGDPMKNKSLLLAVAISATLLAGCKNGVNGNLIASSGMSTYKAATLSDADVKALSNNACKQMDSENQLAGSKSKYTKRLSKIAKALGNNIDGTPVSYKVYMTSDINAWAMANGCVRVYSGLMDLMTDNEIEGVLGHELGHVSLGHSRKAMQTAYATLAARDAISATSGVAAQLSQSQLGDLAEGVINSAFSRSQESDADDFSYDLLKKRGINTQGLVTAFDKFATMDAGHAKSLMDSHPASADRAQHMRDRIAEDKKLEHHHHHH
soluble
